QUANTITY KIND: melting point

[
  {
    "MOLECULE": "Cc1cc(C)nc(-n2c(C(=O)Nc3ccc4c(ccn4C)c3)cc3cc(F)ccc32)c1 [Compound No. 11]",
    "melting point": "198 to 199 °C"
  }
]

INPUT: Quote melting point reported for Cn1ccc2cc(NC(=O)c3cc4cc(F)ccc4n3-c3cccnc3)ccc21 [Compound No. 2] please.
OUTPUT: 203 to 205 °C

INPUT: Let me know recorded melting point for Cc1ccnc(-n2c(C(=O)Nc3ccc4c(ccn4C)c3)cc3cc(F)ccc32)c1 [Compound No. 7] , thanks.
OUTPUT: 276 to 279 °C

INPUT: Please indicate melting point recorded for Cc1nc2cc(NC(=O)c3cc4cc(F)ccc4n3-c3ccccn3)ccc2n1C [Compound No. 5]
OUTPUT: 260 to 261 °C
